Target: human Duox1 (Homo sapiens)
Sequence (Q9NRD9 22-1551): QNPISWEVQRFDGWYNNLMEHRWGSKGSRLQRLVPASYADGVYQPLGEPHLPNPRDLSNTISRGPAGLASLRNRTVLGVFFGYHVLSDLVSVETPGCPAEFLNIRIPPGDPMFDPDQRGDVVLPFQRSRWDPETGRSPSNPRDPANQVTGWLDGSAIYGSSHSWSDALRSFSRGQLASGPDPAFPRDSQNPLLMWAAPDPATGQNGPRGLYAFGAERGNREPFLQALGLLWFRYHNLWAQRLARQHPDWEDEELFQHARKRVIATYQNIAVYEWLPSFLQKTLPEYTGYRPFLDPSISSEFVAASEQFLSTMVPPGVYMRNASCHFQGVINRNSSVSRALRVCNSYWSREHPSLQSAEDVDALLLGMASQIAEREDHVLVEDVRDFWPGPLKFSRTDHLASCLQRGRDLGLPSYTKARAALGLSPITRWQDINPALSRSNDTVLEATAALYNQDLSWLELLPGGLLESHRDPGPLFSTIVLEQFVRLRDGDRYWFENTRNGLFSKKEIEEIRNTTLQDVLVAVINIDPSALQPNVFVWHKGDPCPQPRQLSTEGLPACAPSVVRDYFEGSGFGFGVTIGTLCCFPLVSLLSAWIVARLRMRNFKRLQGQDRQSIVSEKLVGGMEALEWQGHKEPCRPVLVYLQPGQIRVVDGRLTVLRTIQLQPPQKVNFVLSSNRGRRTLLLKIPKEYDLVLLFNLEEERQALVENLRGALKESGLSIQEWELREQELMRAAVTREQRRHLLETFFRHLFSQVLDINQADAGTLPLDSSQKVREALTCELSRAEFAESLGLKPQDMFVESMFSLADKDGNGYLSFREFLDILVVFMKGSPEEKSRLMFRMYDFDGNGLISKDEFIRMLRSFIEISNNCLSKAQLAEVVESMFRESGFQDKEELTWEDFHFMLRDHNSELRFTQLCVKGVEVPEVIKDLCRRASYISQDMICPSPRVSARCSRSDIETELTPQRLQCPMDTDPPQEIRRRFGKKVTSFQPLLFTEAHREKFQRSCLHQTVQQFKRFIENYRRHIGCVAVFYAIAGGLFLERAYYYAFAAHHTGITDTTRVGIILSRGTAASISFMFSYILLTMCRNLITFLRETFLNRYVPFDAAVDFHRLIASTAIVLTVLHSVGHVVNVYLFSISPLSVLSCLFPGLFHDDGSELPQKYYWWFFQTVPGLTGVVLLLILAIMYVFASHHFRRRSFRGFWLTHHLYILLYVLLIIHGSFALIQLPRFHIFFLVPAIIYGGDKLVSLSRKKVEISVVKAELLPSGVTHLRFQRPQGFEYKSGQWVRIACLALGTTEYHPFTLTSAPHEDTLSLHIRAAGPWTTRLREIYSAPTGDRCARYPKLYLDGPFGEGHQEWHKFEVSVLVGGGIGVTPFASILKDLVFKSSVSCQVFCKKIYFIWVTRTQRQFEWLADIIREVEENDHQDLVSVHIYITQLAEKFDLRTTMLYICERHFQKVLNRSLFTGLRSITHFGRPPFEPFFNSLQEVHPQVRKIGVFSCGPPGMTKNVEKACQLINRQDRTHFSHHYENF
pIC50: −log10 of the molar value.
quantity-name: pIC50

| given-smiles | quantity-name | recorded-measurement |
| --- | --- | --- |
| O=C(Nc1nnc(-c2ccccc2)o1)c1ccc(F)c(C(F)(F)F)c1 | pIC50 | 6.52 to 6.70 |

----------
Molecular target: UniProt:P04839
Sequence (P04839 2-570): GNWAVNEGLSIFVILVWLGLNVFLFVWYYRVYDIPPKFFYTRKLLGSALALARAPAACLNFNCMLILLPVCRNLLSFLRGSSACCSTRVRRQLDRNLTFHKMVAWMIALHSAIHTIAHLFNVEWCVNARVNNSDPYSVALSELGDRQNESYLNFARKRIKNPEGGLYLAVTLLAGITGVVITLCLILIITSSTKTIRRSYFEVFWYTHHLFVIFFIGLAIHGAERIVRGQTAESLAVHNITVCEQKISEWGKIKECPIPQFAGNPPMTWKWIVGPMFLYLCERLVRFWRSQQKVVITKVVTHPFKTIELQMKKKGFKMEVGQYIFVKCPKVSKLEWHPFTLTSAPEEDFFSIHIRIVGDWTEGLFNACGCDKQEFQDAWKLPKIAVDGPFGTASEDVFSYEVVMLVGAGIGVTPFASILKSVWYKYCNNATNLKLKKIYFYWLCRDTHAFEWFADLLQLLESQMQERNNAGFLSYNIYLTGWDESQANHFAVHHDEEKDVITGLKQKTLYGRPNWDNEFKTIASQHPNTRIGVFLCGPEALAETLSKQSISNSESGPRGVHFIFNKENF
pIC50: −log10 of the molar value.

| compound | pIC50 |
| --- | --- |
| O=C(Nc1nnc(-c2ccccc2)o1)c1ccc(F)c(C(F)(F)F)c1 [CRB-2131] | 6.52 to 6.70 |

This collection of values is drawn from paper PMC12622451.
